Recorded GI50 values for a group of compounds are listed next.
Test system: KM-20L2
method notes: NCI tumour cell line growth inhibition, 48 h
Activity calls are given as the source filed them. No stated cut-off is given here; in the data, active = GI50 up to about 1.1 µM and inactive = higher.
metric name: GI50

compound: O=C1C2Cc3ccccc3CN2C(=O)N1CN1CCCCC1 (stereo not given)
result: > 100 µM (inactive)

compound: O=C(c1ccccc1)C(c1ccccc1)C1(O)C(=O)Nc2c(Cl)ccc(Cl)c21 (stereo not given)
result: 34.2 µM (inactive)

compound: CC(C)CC(=O)NS(=O)(=O)c1ccccc1
result: > 100 µM (inactive)

compound: COc1ccc(/C=N/Nc2nc(-c3cc4oc(=O)n(C)c4cc3Cl)cs2)cc1OC
result: 15.7 µM (inactive)

compound: COc1ccc(-c2cc(=O)c3c(OC)cccc3o2)c(OC)c1OC
result: > 100 µM (inactive)

compound: CCOc1cc[n+]([C-](C#N)C#N)cc1
result: > 100 µM (inactive)

compound: COc1cc(Nc2nc3cc(C)ccc3nc2-c2ccccc2)cc(OC)c1OC
result: 30.5 µM (inactive)

compound: COC(=O)N1[C@H]2Cc3c(OC)c(C)c(OC)c(OC)c3[C@@H]1/C(=C\c1cc(OC)c(OC)c(C)c1OC)N(Cc1ccccc1)C2=O
result: 46.2 µM (inactive)

compound: NNC(=O)/C(=C/c1ccc(Cl)c(Cl)c1)NC(=O)c1ccccc1
result: > 100 µM (inactive)

compound: CNS(=O)(=O)NN(C)S(=O)(=O)c1ccc(OC)cc1
result: > 100 µM (inactive)

---

System: LXFL 529
method notes: NCI tumour cell line growth inhibition, 48 h
Calls of active or inactive are those of the source. Rule as the data show it: active = GI50 up to about 1.1 µM and inactive = higher.

compound: CC(C)(C)OC(=O)NC(CO)c1cccc(OCc2ccccc2)c1 (centres undefined)
GI50: > 100 µM (inactive)
//
compound: COC(=O)N1[C@H]2Cc3c(OC)c(C)c(OC)c(OC)c3[C@@H]1/C(=C\c1cc(OC)c(OC)c(C)c1OC)N(Cc1ccccc1)C2=O
GI50: 22 µM (inactive)
//
compound: Cc1cc(Cl)ccc1NC(=O)CCCC(=O)C1C/C(=N/O)CC/C1=N\O (centres undefined)
GI50: > 100 µM (inactive)
//
compound: CC1CCC(O)C(C(O)CC2CC(=O)N(C)C(=O)C2)C1 (centres undefined)
GI50: > 100 µM (inactive)
//
compound: Brc1ccccc2cc(-c3ccccc3)nc1-2
GI50: 1.73 µM (inactive)
//
compound: O=C1C(c2cnc3ccccc3n2)=C(O)c2ccccc21
GI50: > 100 µM (inactive)
//
compound: C[C@]12CC/C(=N\OC(=O)Nc3ccccc3)C=C1CC[C@@H]1C2CC[C@@]2(C)C1CC[C@@H]2OC(=O)Nc1ccccc1 (some centres undefined)
GI50: 15.5 µM (inactive)
//
compound: COc1ccc(C2=NN(C(=O)COc3ccc(Cl)cc3)C(O)(c3ccc(Cl)cc3)C2)cc1 (centres undefined)
GI50: > 100 µM (inactive)
//
compound: CC(C)c1ccc(C2C3=C(N=C4SCC(=O)N42)C(=O)c2ccccc23)cc1 (centres undefined)
GI50: 52.4 µM (inactive)

---

Test system: SK-MEL-28
method notes: NCI tumour cell line growth inhibition, 48 h
Active and inactive are the calls of the source. Rule as the data show it: active = GI50 up to about 1.1 µM and inactive = higher.

compound: S=P(c1ccccc1)(c1ccccc1)C1(C2(P(=S)(c3ccccc3)c3ccccc3)CC2)CC1
GI50: > 100 µM (inactive)
--
compound: C[Si](C)(C)c1ccc(-c2c3ccc(-c4cc(Br)cc(Br)c4)nc3nc3nc(-c4cc(Br)cc(Br)c4)ccc23)cc1
GI50: > 100 µM (inactive)
--
compound: O=C1N(c2ccccc2)C2(c3ccccc3)CC3CCCC13S2 (stereo not given)
GI50: > 100 µM (inactive)
--
compound: O=C(O)CN(CCNC(=O)OCC1c2ccccc2-c2ccccc21)CCNC(=O)OCC1c2ccccc2-c2ccccc21
GI50: 25 µM (inactive)
--
compound: CCNC(=S)Nc1c(C#N)c2n(c1C(=O)OCC)CCCCC2
GI50: > 100 µM (inactive)
